- assay.target: Serine/threonine-protein kinase Chk1 (Homo sapiens) (UniProt O14757)
- Sequence (O14757 whole entry): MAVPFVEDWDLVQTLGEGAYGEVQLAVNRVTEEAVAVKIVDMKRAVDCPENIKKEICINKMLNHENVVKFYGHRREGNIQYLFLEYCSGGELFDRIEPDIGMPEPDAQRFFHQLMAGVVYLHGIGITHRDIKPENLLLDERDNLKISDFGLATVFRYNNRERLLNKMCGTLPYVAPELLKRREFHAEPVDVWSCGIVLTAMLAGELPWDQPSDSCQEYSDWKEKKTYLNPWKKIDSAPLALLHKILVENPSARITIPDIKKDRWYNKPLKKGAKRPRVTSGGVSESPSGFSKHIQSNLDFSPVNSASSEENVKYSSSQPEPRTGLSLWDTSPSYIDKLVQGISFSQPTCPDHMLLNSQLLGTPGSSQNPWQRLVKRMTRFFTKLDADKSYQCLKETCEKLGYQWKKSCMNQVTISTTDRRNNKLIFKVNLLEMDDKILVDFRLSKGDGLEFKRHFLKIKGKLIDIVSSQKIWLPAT
- experimental.details: Inhibition of CHK1 at 10 uM by HTRF assay relative to control
experimental.readout: inhibition (%)

Cc1cccc(Oc2ccnc(N3CCC[C@H]3C(=O)NCc3cccnc3)n2)c1 : 0
COc1cccc(Nc2cc(N3CCC[C@H]3C(=O)NCCN3CCCCC3)nc(N)n2)c1 : 3
Cc1cccc(N(C)c2cc(N3CCN(C(=O)Cc4c[nH]c5ccccc45)CC3)ncn2)c1 : 4
O=C(c1nc(SCc2ccc(Cl)cc2)n2ccccc12)N1CCN(c2cc(Nc3cccc(Br)c3)ncn2)CC1 : 5

(1) Nc1nc(Nc2ccc3ncsc3c2)cc(N2CCC[C@H]2C(=O)N[C@@H](CO)c2ccccc2)n1
(2) Cc1cccc(Nc2ncnc3c2CN(C(=O)c2ccc(N(C)C)c4ccccc24)CC3)c1
(3) O=C(NCCc1ccc(O)cc1)c1cccc(Nc2nccc(Nc3ccc4ncsc4c3)n2)c1
Give the ascending ranking of the items by reported inhibition. // format: requested-order list of labels 3, 1, 2
(3: 0%, 1: 2%, 2: 3%)

(a) COc1cccc(Nc2cc(N3CCC[C@H]3C(=O)NCCc3ccc(O)cc3)nc(N)n2)c1
(b) COC[C@@H]1CCCN1C(=O)[C@@H]1CCCN1c1nccc(Nc2ccccc2)n1
Among a and b , whose measured inhibition is the smaller figure? Could you answer with the label of the item you picked? b
(b: 1%, a: 2%)

(P) Cc1cccc(CN2CCN(c3cc(N(C)c4cccc(C)c4)ncn3)CC2)c1
(Q) Nc1nc(N2CCOCC2)cc(N2CCC(C(=O)NCCc3ccc(O)cc3)CC2)n1
# returns the entry with the larger inhibition; inputs P and Q Could you answer with the label of the item you picked? Q

###

- assay.target: Protein kinase C gamma type (Homo sapiens) (UniProt P05129)
- experimental.details: Inhibition of PKCgamma at 10 uM by HTRF assay relative to control
experimental.readout: inhibition (%)

Use these answered entries as a reference point.
Cc1cccc(N(C)c2cc(N3CCN(CC(=O)Nc4nc(-c5ccccc5)cs4)CC3)ncn2)c1 : 0
O=C(CN1CCN(c2ncnc3c2CN(Cc2ccccc2)CC3)CC1)Nc1cc(F)ccc1F : 0
Cc1cccc(Oc2ccnc(N3CCC[C@H]3C(=O)NCCCn3ccnc3)n2)c1 : 1
Cc1cccc(N(C)c2cc(Nc3cccc(C(=O)N(CC(C)C)CC(C)C)c3)ncn2)c1 : 3
Cc1cccc(N(C)c2cc(Nc3cccc(C(=O)N(C)CCc4ccccn4)c3)ncn2)c1 : 6
COc1ccc(-c2noc(CN3CCN(c4cc(Nc5cccc(O)c5)ncn4)CC3)n2)cc1 : 5
Nc1nc(Nc2ccc3ncsc3c2)cc(N2CCC[C@H]2C(=O)N[C@@H](CO)c2ccccc2)n1 : 1

(P) CN(CCc1ccccn1)C(=O)[C@@H]1CCCN1c1nccc(Nc2ccccc2)n1
(Q) CN(CCCn1ccnc1)C(=O)[C@@H]1CCCN1c1nccc(Nc2ccccc2)n1
# returns the entry with the larger inhibition; inputs P and Q Could you answer with the label of the item you picked? P
(P: 6%, Q: 0%)

###

- assay.target: Inhibitor of nuclear factor kappa-B kinase subunit beta (Homo sapiens) (UniProt O14920)
- Sequence (O14920 whole entry): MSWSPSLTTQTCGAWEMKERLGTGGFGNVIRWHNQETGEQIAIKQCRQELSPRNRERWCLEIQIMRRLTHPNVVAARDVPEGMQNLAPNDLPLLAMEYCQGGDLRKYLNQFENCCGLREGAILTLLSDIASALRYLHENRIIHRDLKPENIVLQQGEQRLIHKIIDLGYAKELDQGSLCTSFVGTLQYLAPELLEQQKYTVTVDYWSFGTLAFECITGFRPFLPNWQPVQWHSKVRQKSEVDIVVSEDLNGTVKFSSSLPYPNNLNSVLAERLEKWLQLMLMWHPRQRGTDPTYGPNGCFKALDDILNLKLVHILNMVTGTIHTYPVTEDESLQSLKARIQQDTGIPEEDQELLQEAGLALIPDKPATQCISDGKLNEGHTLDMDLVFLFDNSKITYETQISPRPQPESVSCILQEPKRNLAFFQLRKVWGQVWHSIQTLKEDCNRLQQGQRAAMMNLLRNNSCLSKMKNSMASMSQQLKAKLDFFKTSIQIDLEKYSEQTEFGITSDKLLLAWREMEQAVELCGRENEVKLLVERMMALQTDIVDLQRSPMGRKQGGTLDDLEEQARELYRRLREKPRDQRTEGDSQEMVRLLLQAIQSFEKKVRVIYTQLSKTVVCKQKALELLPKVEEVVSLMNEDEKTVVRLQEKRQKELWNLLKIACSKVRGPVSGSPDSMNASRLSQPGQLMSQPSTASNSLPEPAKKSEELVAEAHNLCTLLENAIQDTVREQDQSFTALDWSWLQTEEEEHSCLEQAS
- experimental.details: Inhibition of IKK-beta at 10 uM by HTRF assay relative to control
experimental.readout: inhibition (%)

COc1ccc(-c2noc(CN3CCN(c4cc(Nc5cccc(O)c5)ncn4)CC3)n2)cc1 : 2
Cc1cccc(N(C)c2cc(Nc3cccc(C(=O)NCCCn4ccnc4)c3)ncn2)c1 : 0
Cc1cccc(N(C)c2cc(Nc3ccc(CC(=O)Nc4ccc5ncsc5c4)cc3)ncn2)c1 : 0

(1) Cc1cccc(Oc2ccnc(N3CCC[C@H]3C(=O)NCCCn3ccnc3)n2)c1
(2) Cc1cccc(N(C)c2cc(Nc3cccc(C(=O)NCc4ccc(N(C)C)cc4)c3)ncn2)c1
(3) COc1ccc(NC(=O)Cc2ccc(Nc3cc(N(C)c4cccc(C)c4)ncn3)cc2)cn1
(4) Cc1ccc(CN2CCN(c3nccc(C(C#N)c4ccccn4)n3)CC2)cc1 (centres undefined)
(5) O=C(NC1Cc2ccccc2C1)c1cccc(Nc2ccnc(N3CCN(c4ccccc4)CC3)n2)c1
Give the ascending ranking of the items by reported inhibition. // format: requested-order list of labels 3, 5, 1, 2, 4
(3: 0%, 5: 1%, 1: 2%, 2: 3%, 4: 7%)
